target_of_assay: human melanocortin 3 receptor (MC3R) (human, UniProt P41968 1-323)
Sequence (P41968 whole entry): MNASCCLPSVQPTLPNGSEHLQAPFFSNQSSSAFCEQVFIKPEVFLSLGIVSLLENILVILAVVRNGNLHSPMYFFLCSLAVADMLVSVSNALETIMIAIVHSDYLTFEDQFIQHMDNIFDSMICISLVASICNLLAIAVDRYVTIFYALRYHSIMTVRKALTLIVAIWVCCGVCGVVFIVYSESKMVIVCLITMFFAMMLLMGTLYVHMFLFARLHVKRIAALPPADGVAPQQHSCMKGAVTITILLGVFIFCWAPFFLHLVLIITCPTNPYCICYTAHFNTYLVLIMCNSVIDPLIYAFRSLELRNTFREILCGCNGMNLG
test: cell-based or functional assay
Positions of bridges follow the written chain, without caps; N, C: chain ends. No end group written: not given here.
The label t is reserved for Max Activation % strictly under 0.8%; f covers values equal to or above it.

* LDPFFRWKVP [B7] | f

Task: Is the reported Max Activation % for Ac-LDPWRWKVP-NH2 (lactam 2-7; SMILES CC(=O)N[C@@H](CC(C)C)C(=O)N[C@H]1CC(=O)NCCCC[C@@H](C(=O)N[C@H](C(=O)N2CCC[C@H]2C(N)=O)C(C)C)NC(=O)[C@H](Cc2c[nH]c3ccccc23)NC(=O)[C@H](CCCNC(=N)N)NC(=O)[C@H](Cc2c[nH]c3ccccc23)NC(=O)[C@@H]2CCCN2C1=O) [C2] strictly below 0.8%?
Output: t

Task: Next: LDPFFRWKVP (lactam 2-8) [B3]
Output: f

Task: Next: IDPWRWKVP [C8]
Output: t

Task: Next: VDPFFRWKVP [B9]
Output: f

Sourced from patent US20260098072A1
